biological target: T1, LgBiT-RXFP4 (HEK-LgBiT-RXFP4 crude membrane fractions) (UniProt Q8TDU9 1-374); assay: NanoBiT competition with 2 nM SmBiT-R3/I5 on HEK-LgBiT-RXFP4 membranes
T1 construct: Assayed as crude membrane fractions (25 µg protein) of HEK cells; not shown: LgBiT tag of NanoBiT
T1 sequence (Q8TDU9 whole entry): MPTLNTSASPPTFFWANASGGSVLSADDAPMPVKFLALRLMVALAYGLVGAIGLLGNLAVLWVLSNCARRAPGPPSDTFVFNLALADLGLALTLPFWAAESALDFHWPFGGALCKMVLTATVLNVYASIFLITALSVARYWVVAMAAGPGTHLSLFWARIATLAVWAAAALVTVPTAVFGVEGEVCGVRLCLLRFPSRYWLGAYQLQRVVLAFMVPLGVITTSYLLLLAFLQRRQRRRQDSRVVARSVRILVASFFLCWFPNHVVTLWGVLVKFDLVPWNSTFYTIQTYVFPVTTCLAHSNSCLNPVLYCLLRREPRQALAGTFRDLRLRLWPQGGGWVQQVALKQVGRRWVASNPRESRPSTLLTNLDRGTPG
Bridge positions count the residues as written; N and C are the ends. Square brackets hold non-standard residues; d marks the D form. Ends that are not written are not given here. αMeF = C[C@](N)(Cc1ccccc1)C(=O)O; S5 = C=CCCC[C@](C)(N)C(=O)O
Lab note: anything with pKi at or over 8 counts as YES; the rest go in NO.

# bool: pKi of SGL[αMeF]YIR[αMeF]VIYISGGSRW (18-residue RXFP4 agonist; also called aF stapled analogue; πI5B) [αF stapled analogue (INSL5 B-chain, Formula V)] >= 8
NO

Quick check: does INSL5-A13: B7-24_G20/21 (two-chain G20/21 analogue) (ligand, GlyGly at positions B20 and B21; also called Formula III) chain 1: CTDGASMKDLSALC chain 2: CGLEYIRTVIYICGGSRW have pKi greater than or equal to 8?
YES

Could you please find out whether Ac-SGL[S5]YIR[S5]VIYISGASRW (staple 4-8) [Hydrocarbon stapled analogue (INSL5 B-chain, Formula VI)] has pKi that meets 8 or exceeds it?
NO

Kindly determine if pKi recorded for SGLKYIRDVIYISGASRW (lactam 4-8) [Lactam Bridge stapled analogue (INSL5 B-chain, Formula VII)] is above or exactly 8.
NO

Could you tell me if the measured pKi of Native INSL5 (human insulin-like peptide 5) (ligand) chain 1: ZDLQTLCCTDGCSMTDLSALC chain 2: KESVRLCGLEYIRTVIYICASSRW reaches 8 or more?
YES

Origin of values: patent US20260265334A1
